Just for reference, paper PMC12010937 is where these values come from.

TARGET: human FXR-LBD (GST-FXR-LBD) (Homo sapiens)
Construct: the human FXR-LBD (residues 234–472) was expressed as a GST fusion protein GST-FXR-LBD; made in house; host or cells: E. coli BL21(DE3)
Sequence (Q96RI1 248-486): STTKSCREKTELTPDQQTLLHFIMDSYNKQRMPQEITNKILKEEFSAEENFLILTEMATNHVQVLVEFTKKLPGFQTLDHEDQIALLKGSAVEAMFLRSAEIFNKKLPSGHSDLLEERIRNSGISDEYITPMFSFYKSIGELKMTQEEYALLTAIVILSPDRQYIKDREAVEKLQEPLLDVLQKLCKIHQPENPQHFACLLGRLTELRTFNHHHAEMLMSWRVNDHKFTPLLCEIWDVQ
EXPERIMENT: HTRF coactivator recruitment assay, agonist mode
Format: biochemical
MEASURED ENDPOINT: Relative activity, agonist mode (%)

>>> df
                                   compound                measured_endpoint  unit_descriptor  measured
0  CCCCCCCC/C=C\CCCCCCCC(=O)NCCO [OEA, oleoyl ethanolamide]  Relative activity, agonist mode                %      0.00
1  CCCCC(CC)COP(=O)(OCC(CC)CCCC)OCC(CC)CCCC (centres unmarked) [TEHP, tris(2-ethylhexyl) phosphate]  Relative activity, agonist mode                %      0.00
2  O=P(Oc1ccccc1)(Oc1ccccc1)Oc1ccccc1 [TPHP, triphenyl phosphate]  Relative activity, agonist mode                %      0.00
3  CCCCC(CC)COC(=O)c1ccccc1C(=O)OCC(CC)CCCC (centres unmarked) [DEHP, bis(2-ethylhexyl) phthalate]  Relative activity, agonist mode                %      0.27
4  CC(=O)c1cc2c(cc1C)C(C)(C)C(C)CC2(C)C (centres unmarked)  Relative activity, agonist mode                %      2.19

====

TARGET: human FXR-LBD (GST-FXR-LBD) (Homo sapiens)
Construct: the human FXR-LBD (residues 234–472) was expressed as a GST fusion protein GST-FXR-LBD; made in house; host or cells: E. coli BL21(DE3)
EXPERIMENT: HTRF coactivator recruitment assay, antagonist mode (in the presence of 50 μM CDCA)
Type: biochemical
CONDITION LABEL: read-out: IC50, inhibition of CDCA-induced coactivator recruitment to FXR
Labelling: IC50 reported below 40 µM becomes Satisfied; at or above becomes Not satisfied.

>>> print(df.to_string())
                                   molecule       category
0  Clc1ccc(COC(Cn2ccnc2)c2ccc(Cl)cc2Cl)c(Cl)c1 (stereo not drawn)      Satisfied
1  CC(=O)c1cc2c(cc1C)C(C)(C)C(C)CC2(C)C (stereo not drawn)  Not satisfied
2  CCCCCCCC/C=C\CCCCCCCC(=O)NCCO [OEA, oleoyl ethanolamide]      Satisfied
3              Oc1cc(Cl)ccc1Oc1ccc(Cl)cc1Cl      Satisfied
4  O=P(Oc1ccccc1)(Oc1ccccc1)Oc1ccccc1 [TPHP, triphenyl phosphate]  Not satisfied
